- systemUnderTest: human KDR protein in HEK-293 cells (Homo sapiens (Human))
- Sequence (P35968 20-1356): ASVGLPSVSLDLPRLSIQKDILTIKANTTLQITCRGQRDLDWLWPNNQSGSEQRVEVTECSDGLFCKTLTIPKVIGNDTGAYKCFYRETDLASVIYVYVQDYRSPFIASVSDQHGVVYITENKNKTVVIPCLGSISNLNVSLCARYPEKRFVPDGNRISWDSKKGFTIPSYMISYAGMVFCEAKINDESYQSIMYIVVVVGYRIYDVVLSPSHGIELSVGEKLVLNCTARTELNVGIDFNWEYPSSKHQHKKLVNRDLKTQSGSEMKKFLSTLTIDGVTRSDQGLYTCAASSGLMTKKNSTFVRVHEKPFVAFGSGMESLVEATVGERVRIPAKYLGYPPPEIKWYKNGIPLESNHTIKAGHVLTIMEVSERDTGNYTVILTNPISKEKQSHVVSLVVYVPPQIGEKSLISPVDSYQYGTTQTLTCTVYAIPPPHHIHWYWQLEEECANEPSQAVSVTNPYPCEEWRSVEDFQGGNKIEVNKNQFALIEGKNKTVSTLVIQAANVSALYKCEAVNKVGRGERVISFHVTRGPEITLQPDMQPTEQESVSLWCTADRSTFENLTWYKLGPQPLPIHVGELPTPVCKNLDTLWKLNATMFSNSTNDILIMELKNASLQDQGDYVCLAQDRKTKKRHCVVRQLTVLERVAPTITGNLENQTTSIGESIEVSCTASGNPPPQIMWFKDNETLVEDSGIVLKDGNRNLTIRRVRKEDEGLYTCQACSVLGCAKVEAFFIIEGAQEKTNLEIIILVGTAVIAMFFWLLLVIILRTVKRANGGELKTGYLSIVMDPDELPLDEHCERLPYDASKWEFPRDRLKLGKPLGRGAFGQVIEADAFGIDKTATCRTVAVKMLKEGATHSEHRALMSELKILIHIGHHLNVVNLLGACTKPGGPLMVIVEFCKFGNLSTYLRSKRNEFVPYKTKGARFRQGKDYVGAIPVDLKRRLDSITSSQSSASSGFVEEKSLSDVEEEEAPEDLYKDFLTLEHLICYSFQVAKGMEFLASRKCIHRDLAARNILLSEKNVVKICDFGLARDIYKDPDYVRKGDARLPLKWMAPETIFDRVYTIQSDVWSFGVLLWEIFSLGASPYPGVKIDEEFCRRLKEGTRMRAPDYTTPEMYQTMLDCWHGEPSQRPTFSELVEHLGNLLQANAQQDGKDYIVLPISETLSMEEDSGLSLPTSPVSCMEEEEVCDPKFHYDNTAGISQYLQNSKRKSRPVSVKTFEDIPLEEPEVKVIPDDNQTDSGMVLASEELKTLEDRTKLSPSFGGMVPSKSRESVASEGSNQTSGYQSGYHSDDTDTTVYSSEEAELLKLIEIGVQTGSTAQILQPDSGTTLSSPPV
- protocolText: KDR Cell Assay (phospho-KDR in HEK-293 cells expressing inducible KDR)
- Type: cell-based
- protocolConditions: pKDR Cell HEK 10% FBS IC50, HEK-293 cells expressing inducible KDR, VEGF stimulated, 10% FBS
readout: IC50 (nM)
One number for each entry, in nM.

molecule: Cn1cc(-c2cc(-c3ccc(N4CCN(C(=O)C5CCCC5)CC4)nc3)c3c(C#N)cnn3c2)cn1 [Example 21]
IC50 / nM: 540

Respectfully, I request IC50 for each entry included below.
1. Cn1cc(-c2cc(-c3ccc(N4CCN(C(=O)C5(C#N)CC5)CC4)nc3)c3c(C#N)cnn3c2)cn1 [Example 348]
2. CC(C)NC(=O)NC1CCN(c2ccc(-c3cc(-c4cnn(C)c4)cn4ncc(C#N)c34)cn2)CC1 [Example 187]
3. Cc1ccc(CC(=O)N2CCN(c3ccc(-c4cc(-c5cnn(C)c5)cn5ncc(C#N)c45)cn3)CC2)cn1 [Example 19]
4. Cn1cc(-c2cc(-c3ccc(N4CCN(Cc5ccccc5)CC4)nc3)c3c(C#N)cnn3c2)cn1 [Example 139]
5. CC(C)OCCNC(=O)C1CCN(c2ccc(-c3cc(-c4cnn(C)c4)cn4ncc(C#N)c34)cn2)CC1 [Example 234]
6. Cn1cc(-c2cc(-c3ccc(N4CCN(C(=O)N5CCC(F)(F)C5)CC4)nc3)c3c(C#N)cnn3c2)cn1 [Example 101]

1. 1410
2. 871
3. 546
4. 289
5. 1210
6. 868
